- Protocol Text: yeast display, Sf9 membrane polyspecificity reagent, FACS + sequencing; frameworks hold sequencing errors
Measured Endpoint: polyreactivity (PSR sort gate)

[[record]]
chain = "QVQLVESGGGLVQAGGSLRLSCAASARILAYYAMGWYRQAPGKERELVAAITSGGRTYYADSVKGRFTISRDNAKNTVYLQMNSLKPEDTAVYYGAVRWYPRYGSRYDYWGQGTQVTVSS"
measured_endpoint = "polyreactivity (PSR sort gate)"
data_value = "high polyreactivity"

[[record]]
chain = "QVQLVESGGGLVQAGGSLRLSCAASGRTFYSYAMGWYRQAPGKERELVASISSSGASTYYADSVKGRFTISRDNAKNTVYLQMNSLKPEDTAVYYCNSVWRTSFITIYGFDYWGQGTQVTVSS"
measured_endpoint = "polyreactivity (PSR sort gate)"
data_value = "high polyreactivity"

